system: recombinant firefly luciferase (Photinus pyralis, UniProt P08659)
Sequence (P08659 whole entry): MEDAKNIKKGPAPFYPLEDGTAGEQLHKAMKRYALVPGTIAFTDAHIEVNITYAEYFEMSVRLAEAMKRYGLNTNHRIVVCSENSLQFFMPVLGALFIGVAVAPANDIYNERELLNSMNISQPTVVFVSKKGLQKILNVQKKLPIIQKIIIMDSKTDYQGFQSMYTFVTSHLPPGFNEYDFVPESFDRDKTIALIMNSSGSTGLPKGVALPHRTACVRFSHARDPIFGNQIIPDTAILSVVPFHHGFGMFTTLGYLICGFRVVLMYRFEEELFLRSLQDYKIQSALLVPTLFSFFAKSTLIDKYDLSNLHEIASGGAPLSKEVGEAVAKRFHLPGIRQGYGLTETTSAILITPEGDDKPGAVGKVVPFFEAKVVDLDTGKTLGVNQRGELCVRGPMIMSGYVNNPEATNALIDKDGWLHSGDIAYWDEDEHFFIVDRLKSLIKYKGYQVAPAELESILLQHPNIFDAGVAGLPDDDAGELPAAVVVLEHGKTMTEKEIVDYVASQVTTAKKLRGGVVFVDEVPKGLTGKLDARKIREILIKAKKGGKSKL
assay.procedure: biochemical
measurement.setup: read-out: rLuc IC50
Entries annotated with measured IC50

| molecule | IC50 |
| --- | --- |
| Fc1ccc(CN2CCCC(c3cc4ncccc4[nH]3)C2)cc1 (stereo not shown) | > 25 µM |
| Cc1cc(C(=O)N2CCN(c3nc4c(C(C)C)cccc4s3)CC2)no1 | > 50 µM |
| CCOc1ccc(CN2CCCC(c3cc4ncccc4[nH]3)C2)cc1 (stereo not shown) | > 25 µM |
| COc1ccc2cc(C3CN(C(=O)N(C)C)CCO3)ccc2c1 (stereo not shown) | 3.45 µM |
| CCCc1cc(=O)[nH]c(-n2nc(C3CC3)cc2N)n1 | > 25 µM |
| CCc1c(C)nc(-n2nc(C3CC3)cc2NC(C)=O)[nH]c1=O | > 50 µM |
| Clc1ccc(-c2ccc(C3CNCCO3)nc2)cc1 (stereo not shown) | 0.06 µM |
| COc1ccc(-c2ccc(C3CNCCO3)nc2)cc1 (stereo not shown) | 0.03 µM |
| CCS(=O)(=O)N1CCc2ccc(NC(=O)Nc3cccc(SC)c3)cc21 | > 25 µM |
| Cc1cc(NC(=O)C(C)C)n(-c2nc(C)c(C)c(=O)[nH]2)n1 | > 50 µM |
| Cc1cc(C(=O)N2CCN(c3nc4c(C(C)C)cccc4s3)CC2)on1 | > 50 µM |
| COc1cc(C)c(CN2CCc3nc4ccsc4c(=O)n3CC2)cc1C | > 25 µM |
| COc1ccc2cc(C3CN(C(=O)CCNC(C)=O)CCO3)ccc2c1 (stereo not shown) | 9.9 µM |

---

System: HepG2-A16-CD81 hepatocytes
assay.procedure: HepG2 cytotoxicity screening (CellTiter-Glo)
measurement.setup: 12pt dose response, maximum inhibition
Given measured HepG2 cytotoxicity 12pt dose response: Maximum inhibition (%), output 1 if it is greater than or equal to 30% and -1 if not.

| compound | class.name |
| --- | --- |
| COC(=O)CSCc1noc(-c2ccc(C)cc2)n1 | -1 |
| Cc1ccoc1C(=O)NC1CCN(Cc2csc3c(F)cccc23)CC1 | -1 |
| CCS(=O)(=O)N1CCc2ccc(NC(=O)Nc3cccc(SC)c3)cc21 | 1 |
| O=C(Nc1ccc(Cl)cn1)c1nn(C2CCS(=O)(=O)C2)c2c1CCCC2 (stereo not drawn) | -1 |
| CCS(=O)(=O)N1CCc2ccc(NC(=O)Nc3cccc(C)c3)cc21 | 1 |
| CCC1=NC(SCC(=O)c2ccccc2)c2cc(CC)sc2N1 (stereo not drawn) | -1 |
| COC1CCN(c2ccc(NC(=O)C3CC3)cc2C(F)(F)F)CC1 | -1 |
| c1ccc(-c2ccc(C3CNCCO3)nc2)cc1 (stereo not drawn) | -1 |
| Cc1n[nH]c(CN2CCN(c3ncnc4scc(C)c34)CC2)c1Cl | 1 |
| Cn1cnc2c1CCN(Cc1csc(-c3ccccc3F)n1)C2 | -1 |
| Cc1[nH]/c(=N\C(=O)c2csc(NC3CCCC3)n2)sc1C | 1 |
| CCc1nc(CN2CCCN(c3ncnc4ccccc34)CC2)no1 | 1 |
| CC(C)(CO)Nc1ccc(-c2nc(-c3ccccc3F)no2)cn1 | 1 |
| COc1cc(CN(C)C(=O)Cc2c(C)nn(C)c2C)ccc1OC(F)F | 1 |
| Cc1nc(N2CC[C@@H](NC(=O)c3cnccn3)[C@H](O)C2)c2ccsc2n1 | 1 |
| CC(C)Cc1ccc(S(=O)(=O)Nc2ccc(=O)n(C)c2)cc1 | 1 |
| CCN1CC(CN(C)c2cc(C)nc(N)n2)Oc2ccccc21 (stereo not drawn) | 1 |
| CCc1ccc(-c2ncc3c(n2)N(C)CCN(CCN(C)C)C3=O)cc1 | -1 |
| c1ccc(OCCNc2ncnc3sc4c(c23)CCNC4)cc1 | 1 |
| CCc1c(C)nc(-n2nc(C3CC3)cc2NC(C)=O)[nH]c1=O | -1 |
| Cc1cc(C(=O)N2CCN(c3nc4c(C(C)C)cccc4s3)CC2)on1 | -1 |
| Cc1cccc(Nc2cc(C3CCCN(CC(N)=O)C3)ccn2)n1 (stereo not drawn) | -1 |
| Cc1cn2c(n1)C(CNCC1=Cc3ccccc3OC1)CCC2 (stereo not drawn) | -1 |
| COc1ccc(-c2ccc(C3CNCCO3)nc2)cc1 (stereo not drawn) | -1 |
| CCOC(=O)N1CCN(c2nc(CCN)nc3sc(C)c(C)c23)CC1 | -1 |
| O=S(=O)(c1ccc(Cl)s1)N1CCN(Cc2nc(-c3ccco3)cs2)CC1 | 1 |
| CCS(=O)(=O)N1[CH]Cc2ccc(NC(=O)Nc3cccc(C#N)c3)cc21 | 1 |
| C[C@H](c1ccc(F)cc1)n1c(C2CCN(C)CC2)n[nH]c1=O | -1 |
| Cc1cccc(NC(=O)c2[nH]nc(C(C)C)c2Br)n1 | 1 |
| Cc1n[nH]cc1CNC1CCN(c2cccc(C(F)(F)F)c2)CC1 | -1 |

---

Entries annotated with measured pIC50
system: recombinant firefly luciferase (Photinus pyralis, UniProt P08659)
assay.procedure: biochemical
measurement.setup: dose response; read-out: rLuc inhibition dose response: IC50
pIC50: −log10 of the molar value.
value.type: pIC50

| compound | test.result |
| --- | --- |
| Cc1noc(NC(=O)c2ccc(Br)s2)n1 | < 4.60 |
| Cc1nc(N2CC[C@@H](NC(=O)c3cnccn3)[C@H](O)C2)c2ccsc2n1 | < 4.60 |
| COc1cccc(-c2noc(C3CCN(Cc4cn(C)nc4C)C3)n2)c1 (stereo not drawn) | 4.62 |
| O=S(=O)(c1ccc(Cl)s1)N1CCN(Cc2nc(-c3ccco3)cs2)CC1 | < 4.60 |
| Cc1ccc(Nc2nccc(C3CCN(CC(N)=O)C3)n2)nc1 (stereo not drawn) | 7.40 |
| COc1ccc(-c2nc(CN3CC(n4cc(C)cn4)C3)no2)cc1 | < 4.60 |
| Cc1csc2ncnc(N3CCC(Cn4cc(C(C)(C)O)nn4)CC3)c12 | < 4.60 |
| Nc1nc(CCC(=O)N2CCOC(CC3CCCCC3)C2)cs1 (stereo not drawn) | < 4.60 |
| Cc1cc(NC(=O)c2ccc(CN3CC[C@H](O)C3)cc2)ccc1F | > 7.61 |
| COc1ccc(-c2cc(CNc3ncnc4c3CCNCC4)no2)cc1 | < 4.60 |
| Fc1ccc(N2CCCN(c3ccc(Cn4ccnc4)cn3)CC2)cc1 | < 4.60 |
| Cn1cnc2c1CCN(Cc1csc(-c3ccccc3F)n1)C2 | 4.82 |
| CC(=O)c1ccc(N2CCC(CO)(CCOc3ccccc3)CC2)nc1 | < 4.60 |
| c1ccc(-c2ccc(C3CNCCO3)nc2)cc1 (stereo not drawn) | 6.66 |
| CCc1nc(CN2CCN(c3ncnc4cc(F)ccc34)CC2)no1 | < 4.60 |

---

assay.procedure: HepG2 cytotoxicity screening (CellTiter-Glo)
measurement.setup: human, uninfected HepG2-A16-CD81 (EGFP) hepatocytes
value.type: IC50

| compound | test.result |
| --- | --- |
| CC(Nc1ncnc2c1CCNC2)c1ccc2c(c1)CCCC2 (stereo not drawn) [UCSD-0833335] | 18.4 µM |
| CCc1cccc(N2CCC(NC(=O)c3ccco3)CC2)c1 [UCSD-0587427] | > 25 µM |
| Cc1ncc(C(=O)NC2CCN(CCOc3ccc(Br)cc3)CC2)s1 [UCSD-0818166] | > 25 µM |

---

System: P. falciparum Dd2
assay.procedure: SYBR green I asexual blood stage proliferation assay (96 h)
Assay type: cell-based, Plasmodium falciparum
measurement.setup: Plasmodium falciparum, DD2; 11-pt dose response, 96hr; read-out: P. falciparum Sybr Green I ABS 11-pt Reconfirmation Dose Response (96hr): Maximum inhibition (%)

| compound | Emax / % |
| --- | --- |
| CCc1cnc(N)nc1NC(C)c1ccc(C)c(C)c1 (stereo not shown) | 62.1 |
| Cn1cc(CN2CCCC(CCc3ccccc3C(F)(F)F)C2)cn1 (stereo not shown) | 62 |
| CC(C)(C)c1nccc(C2(c3ccccc3Cl)CCNCC2)n1 | 74.4 |
| Cc1cn2c(n1)C(CNCC1=Cc3ccccc3OC1)CCC2 (stereo not shown) | 83.8 |
| c1cncc(N2CCCC3(CCN(CCN4CCCC4)CC3)C2)c1 | 93.7 |
| c1ccc(CN2CCCC3(CCN(Cc4cccs4)C3)C2)nc1 (stereo not shown) | 58 |
| OCc1csc(N2CCCC(COc3cccc(F)c3)C2)n1 (stereo not shown) | 63 |

---

assay.procedure: HepG2 cytotoxicity screening (CellTiter-Glo)
measurement.setup: human, uninfected HepG2-A16-CD81 (EGFP) hepatocytes
value.type: IC50

| molecule | test.result |
| --- | --- |
| Cc1cc(C(=O)N2CCN(c3nc4c(C(C)C)cccc4s3)CC2)on1 [UCSD-0787150] | > 25 µM |
| COc1cccc(CN2CCN(c3ccc4nncn4n3)C(C)C2)c1 (stereo not drawn) [UCSD-0601459] | > 25 µM |
| O=C(O)c1cccnc1N1CCN(Cc2ccc(F)cc2)C(CCO)C1 (stereo not drawn) [UCSD-0826099] | > 50 µM |
